- target desc: interstitial collagenase (Homo sapiens)
- Sequence (P03956 100-469, species assumed): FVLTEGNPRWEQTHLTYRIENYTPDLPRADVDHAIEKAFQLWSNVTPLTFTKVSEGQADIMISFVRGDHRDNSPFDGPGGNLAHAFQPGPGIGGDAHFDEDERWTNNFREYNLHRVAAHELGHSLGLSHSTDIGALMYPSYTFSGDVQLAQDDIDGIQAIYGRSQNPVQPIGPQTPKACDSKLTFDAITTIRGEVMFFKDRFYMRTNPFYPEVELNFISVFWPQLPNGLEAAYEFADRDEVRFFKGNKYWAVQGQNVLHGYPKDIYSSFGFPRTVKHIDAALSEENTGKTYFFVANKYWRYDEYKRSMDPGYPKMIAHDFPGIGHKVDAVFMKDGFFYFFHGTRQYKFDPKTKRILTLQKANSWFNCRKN
- protocol text: biochemical
quantity kind: IC50 (µM)
Answers are plain numbers, in µM.

Problem: Determine its reported IC50: "CO[C@H](C(=O)NO)[C@@H](CC(C)C)C(=O)N[C@H](C(=O)Nc1ccccn1)C(C)(C)C"
Result: 0.01

----------
- target desc: 72 kDa gelatinase (Homo sapiens)
- Construct: endogenous in cells
- Sequence (P08253 110-660): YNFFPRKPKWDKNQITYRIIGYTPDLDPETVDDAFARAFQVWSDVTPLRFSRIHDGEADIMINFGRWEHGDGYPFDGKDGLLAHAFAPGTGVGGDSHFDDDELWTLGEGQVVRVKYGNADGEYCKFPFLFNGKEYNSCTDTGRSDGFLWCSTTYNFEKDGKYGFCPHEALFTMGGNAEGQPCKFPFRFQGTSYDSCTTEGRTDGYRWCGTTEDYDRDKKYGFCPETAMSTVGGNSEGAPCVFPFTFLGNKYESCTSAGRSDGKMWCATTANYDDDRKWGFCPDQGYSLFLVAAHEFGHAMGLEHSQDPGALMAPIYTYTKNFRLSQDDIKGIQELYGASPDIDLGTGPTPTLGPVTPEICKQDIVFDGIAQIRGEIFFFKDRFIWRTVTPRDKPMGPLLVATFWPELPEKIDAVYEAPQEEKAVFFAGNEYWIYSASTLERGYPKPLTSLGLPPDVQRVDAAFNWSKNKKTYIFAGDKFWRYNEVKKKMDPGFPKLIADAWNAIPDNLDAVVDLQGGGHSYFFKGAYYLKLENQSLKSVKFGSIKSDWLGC
- protocol text: 72 kDa gelatinase inhibition (14C gelatin, based on Sellers et al)
- setup conditions: 16 hours at 37°C
quantity kind: pIC50
Numbers only, as −log10 of the molar value.

Problem: Determine its reported pIC50: "CO[C@H](C(=O)NO)[C@@H](CC(C)C)C(=O)N[C@H](C(=O)Nc1ccccn1)C(C)(C)C"
Result: 7.15

----------
- target desc: UniProt P08254
- Sequence (P08254 100-477, species assumed): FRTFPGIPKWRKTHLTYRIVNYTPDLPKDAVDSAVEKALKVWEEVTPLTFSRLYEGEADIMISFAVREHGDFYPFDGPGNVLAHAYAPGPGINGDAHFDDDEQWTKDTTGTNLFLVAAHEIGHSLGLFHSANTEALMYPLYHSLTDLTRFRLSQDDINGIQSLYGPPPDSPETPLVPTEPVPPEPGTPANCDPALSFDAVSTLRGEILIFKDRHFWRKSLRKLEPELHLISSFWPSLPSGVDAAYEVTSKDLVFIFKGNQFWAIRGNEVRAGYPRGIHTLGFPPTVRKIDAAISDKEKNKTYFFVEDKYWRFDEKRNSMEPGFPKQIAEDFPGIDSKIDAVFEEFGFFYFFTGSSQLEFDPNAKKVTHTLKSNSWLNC
- protocol text: biochemical
quantity kind: IC50 (nM)
Numbers only, in nM.

Problem: Using the record for "CO[C@H](C(=O)NO)[C@@H](CC(C)C)C(=O)N[C@H](C(=O)Nc1ccccn1)C(C)(C)C" , state its measured IC50.
Result: 30

Reference for the values: patent EP1030842B1
